In this section we review reported growth inhibition values for a set of compounds.
method: NCI Yeast Anticancer Drug Screen. Data for the rad50 strain (AID 155);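 further: 0% = growth of vehicle-only cultures of the same strain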
reported-conditions: S. cerevisiae rad50 strain growth inhibition; at 50.0 µM; active compounds read high
Compounds without any hit were thinned out: in the full panel of roughly 79,000, 15% have a hit. Active and inactive are the calls of the source. No stated cut-off is given here; in the data, active means growth inhibition above about 70%; inactive means the rest.
measure-name: growth inhibition

{"compound": "Cn1c2nc(-[n+]3ccc(-c4ccccc4)cc3)nc-2c([O-])n(C)c1=O", "value-observed": "-7.35% (inactive)"}
{"compound": "CCCCCCCCCCCC(=O)C(=O)c1ccc(O)cc1O", "value-observed": "93.8% (active)"}
{"compound": "CN(C)CCOc1cc2c(c3ccccc13)-c1ccccc1C2=O", "value-observed": "99.7% (active)"}
{"compound": "CN(C)c1ccc(C=Nc2ccc(OCCCCCCCCCCC(=O)O)cc2)cc1", "value-observed": "82.5% (active)"}
{"compound": "CC(=O)NC1=C(Cl)C(=O)c2ccccc2C1=O", "value-observed": "99.5% (active)"}
{"compound": "CC(=O)OC1COC(n2ccc3cc(Br)c([N+](=O)[O-])cc32)C(OC(C)=O)C1OC(C)=O (stereo not drawn)", "value-observed": "69.7% (inactive)"}
{"compound": "O=C1NC(=S)S/C1=C\\c1cc(Cl)ccc1O", "value-observed": "2.85% (inactive)"}
{"compound": "CCCCCCCCCC1OCC(O)CO1 (stereo not drawn) (tested in a mixture with another compound)", "value-observed": "99% (active)"}
{"compound": "CCSSC12CCCN1C(=O)C(C)N(C)C2=O (stereo not drawn)", "value-observed": "77.6% (active)"}
{"compound": "CC(C)(C)c1ccc(Sc2ncnc3ccccc23)cc1", "value-observed": "90.8% (active)"}
{"compound": "CN(N(P(c1ccccc1)c1ccccc1)P(c1ccccc1)c1ccccc1)P(c1ccccc1)c1ccccc1", "value-observed": "88.7% (active)"}
{"compound": "NC(=Nc1cc2ccccc2c2ccccc12)Nc1cc2ccccc2c2ccccc12", "value-observed": "85.8% (active)"}
{"compound": "CCCCCCC(Sc1n[nH]c(=O)[nH]c1=O)C(=O)OCC (stereo not drawn)", "value-observed": "61.5% (inactive)"}

----------
method: NCI Yeast Anticancer Drug Screen. Data for the bub3 strain (AID 167)
reported-conditions: S. cerevisiae bub3 mutant strain, at 5.0 µM (retest, dose inferred, filed as 0.5), active compounds read high
Compounds without any hit were thinned out: in the full panel of roughly 79,000, 15% have a hit.

{"molecule": "CCCCN(CCC(=O)O)c1ccc(/C=C\\c2ccnc3ccccc23)cc1", "growth inhibition (%)": -2}
{"molecule": "CC1=C(C(=O)OCCc2ccc([N+](=O)[O-])cc2)C(c2ccccc2[N+](=O)[O-])C(C(=O)OC(C)C)=C(C)N1 (stereo unspecified)", "growth inhibition (%)": 4}
{"molecule": "CC1=C(C(=O)Nc2cccc(Cl)c2)C(c2ccc([N+](=O)[O-])cc2)C(C(=O)Nc2cccc(Cl)c2)=C(C)N1", "growth inhibition (%)": 49}
{"molecule": "c1ccc2nc3[nH]c4ccccc4c3cc2c1", "growth inhibition (%)": 18}
{"molecule": "c1ccc(CCC2=Nc3ccccc3CO2)cc1", "growth inhibition (%)": -68}
{"molecule": "O=[N+]([O-])c1ccc(S(=O)(=O)C/C=C/CCl)c([N+](=O)[O-])c1", "growth inhibition (%)": 37}
{"molecule": "O=C(NC1=C(Cl)C(=O)c2ccccc2C1=O)C(=O)C(C(=O)c1ccc2ccccc2c1)C1OC(=O)c2ccccc21 (stereo unspecified)", "growth inhibition (%)": 22}
{"molecule": "CSc1nc(=Nc2ccccc2)sn1-c1ccccc1", "growth inhibition (%)": 41}
{"molecule": "C/C=C/C(=O)N1c2ccccc2CC1c1c(C)[nH]c2ccccc12 (stereo unspecified)", "growth inhibition (%)": 6}
{"molecule": "O=[N+]([O-])c1ccc(-c2nc(/C=N/N3CCCCC3)cs2)o1", "growth inhibition (%)": -1}
{"molecule": "O=[N+]([O-])c1ccc2c(c1)[n+]([O-])c1[nH]c3ccccc3c1[n+]2[O-] (tested in a mixture with another compound)", "growth inhibition (%)": 64}
{"molecule": "CC(C)c1cc(O)c(C(C)(C)C)cc1Cl", "growth inhibition (%)": -11}
{"molecule": "O=C(c1ccccc1)C(Br)CCCC(Br)C(=O)c1ccccc1 (stereo unspecified)", "growth inhibition (%)": 23}
{"molecule": "Cc1ccc2c(c1C)-c1c(ccc(C)c1C)C(=O)C2=O", "growth inhibition (%)": 46}
{"molecule": "O=C(O)C(S(=O)(=O)O)S(=O)(=O)O", "growth inhibition (%)": 99}
{"molecule": "C[n+]1cc2c3ccccc3ccc2c2ccccc21", "growth inhibition (%)": 7}
